- Tested Target: 5-hydroxytryptamine receptor 4 (Homo sapiens, UniProt Q13639)
- Sequence (Q13639 whole entry, canonical isoform): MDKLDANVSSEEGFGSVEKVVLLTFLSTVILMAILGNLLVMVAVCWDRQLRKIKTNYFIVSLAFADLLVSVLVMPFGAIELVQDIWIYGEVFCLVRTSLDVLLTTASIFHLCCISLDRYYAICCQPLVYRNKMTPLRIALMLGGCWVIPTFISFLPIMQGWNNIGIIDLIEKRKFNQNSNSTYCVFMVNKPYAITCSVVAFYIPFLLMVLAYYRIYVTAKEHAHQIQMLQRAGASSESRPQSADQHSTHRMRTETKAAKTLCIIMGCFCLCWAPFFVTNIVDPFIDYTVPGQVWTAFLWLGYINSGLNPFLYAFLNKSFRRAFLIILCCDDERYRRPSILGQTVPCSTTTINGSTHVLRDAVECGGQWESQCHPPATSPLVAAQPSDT
- Experimental Protocol: Displacement of [3H]GR-113808 from human 5HT4 isoform E receptor expressed in rat C6 cells by liquid scintillation counting
Observable: Ki (nM)

chemical_smiles=COc1cc(N)c(Cl)cc1C(=O)OCCN1CCC(NC(=O)Cc2ccccc2Cl)CC1 recorded_measurement=5
chemical_smiles=COc1cc(N)c(Cl)cc1C(=O)OCCN1CCC(NC(=O)CCCNCCCc2ccccc2)CC1 recorded_measurement=12
chemical_smiles=COc1cc(N)c(Cl)cc1C(=O)OCCN1CCC(NC(=O)CCCNCCCc2ccc(CCCNCCCC(=O)NC3CCN(CCOC(=O)c4cc(Cl)c(N)cc4OC)CC3)cc2)CC1 recorded_measurement=14
chemical_smiles=COc1cc(N)c(Cl)cc1C(=O)OCCN1CCC(CNC(=O)CCCNS(=O)(=O)c2ccc(C)cc2)CC1 recorded_measurement=2
